ASSAY_TARGET: Geranylgeranyl transferase type I (Homo sapiens, UniProt P49354+P53609)
RUN_DESCRIPTION: Inhibition of Geranylgeranylprotein transferase-I catalyzed incorporation of [3H]GGPP into biotinYRASNRSCAIL peptide
So I've got a bunch of compounds here, and I need their pIC50 values.
pIC50 is defined as minus the log10 of a concentration measured in mol/L.

# input Look up pIC50: Cn1cncc1C(N)(c1ccc(Cl)cc1)c1ccc2c(c1)c(-c1cccc(Cl)c1)cc1nnnn12 (stereo in doubt; 24b)
# output 7.09

# input Input Cn1cncc1C(N)(c1ccc(Cl)cc1)c1ccc2c(c1)c(-c1cccc(Cl)c1)cc1nnnn12 (stereo in doubt; 24)
# output 6.75

# input Another: Cn1cncc1C(N)(c1ccc(Cl)cc1)c1ccc2c(c1)c(-c1cccc(Cl)c1)nc1nnnn12 (stereo in doubt; 43)
# output 6.34

====

Field: pIC50. Provide a value for each of the compounds that follow.
ASSAY_TARGET: Protein farnesyltransferase (Homo sapiens, UniProt P49354+P49356)
RUN_DESCRIPTION: Inhibition of [3H]FPP incorporation into biotinylated laminB peptide by farnesyl transferase
Please express pIC50 as -log10 of the molar concentration.

# input So what's the measured pIC50 for this one? Cn1cncc1C(N)(c1ccc(Cl)cc1)c1ccc2c(c1)c(-c1cccc(Cl)c1)cc1nnnn12 (stereo in doubt; 24b)
# output 8.77

# input Same for Cn1cncc1C(N)(c1ccc(Cl)cc1)c1ccc2c(c1)c(-c1cccc(Cl)c1)nc1nnnn12 (stereo in doubt; 43b)
# output 7.66

# input Queued: Cn1cncc1C(N)(c1ccc(Cl)cc1)c1ccc2c(c1)c(-c1cccc(Cl)c1)nc1nnnn12 (stereo in doubt; 43a)
# output 9.22

# input Next compound up: Cn1cncc1C(N)(c1ccc(Cl)cc1)c1ccc2c(c1)c(-c1cccc(Cl)c1)cc1nccn12 (configuration not stated)
# output 8.15

# input Same for Cn1cncc1C(N)(c1ccc(Cl)cc1)c1ccc2c(c1)c(-c1cccc(Cl)c1)cc1nnnn12 (stereo in doubt; 24)
# output 8.46

# input Record: Cn1cncc1C(N)(c1ccc(Cl)cc1)c1ccc2c(c1)c(-c1cccc(Cl)c1)nc1nccn12 (configuration not stated)
# output 8.30

# input Similarly, `Cn1cncc1[C@@](N)(c1ccc(Cl)cc1)c1ccc2c(c1)c(-c1cccc(Cl)c1)cc(=O)n2C` ?
# output 9.05

====

ASSAY_TARGET: Protein farnesyltransferase (Homo sapiens, UniProt P49354+P49356)
RUN_DESCRIPTION: Inhibition of [3H]FPP incorporation into biotinylated laminB peptide by farnesyl transferase
RECORDED_ENDPOINT: IC50 (nM)
Form entry: value (nM) — number only.

# input Give recorded IC50 with Protein farnesyltransferase (Homo sapiens, UniProt P49354+P49356) for the following compound: Cn1cncc1C(N)(c1ccc(Cl)cc1)c1ccc2c(c1)c(-c1cccc(Cl)c1)nc1nncn12 (stereo not drawn)
# output 3

# input One more compound: Cc1nnc2cc(-c3cccc(Cl)c3)c3cc(C(N)(c4ccc(Cl)cc4)c4cncn4C)ccc3n12 (stereo not drawn)
# output 1.5

# input Check Cn1cncc1C(N)(c1ccc(Cl)cc1)c1ccc2c(c1)c(-c1cccc(Cl)c1)nc1nnnn12 (stereo in doubt; 43) too.
# output 2.5
